Ref: the METLIN SMRT retention time set (Domingo-Almenara et al. 2019)

Exercise: for every item that follows, state its recorded RP-LC retention time.
PROTOCOL SUMMARY: gradient 5% acetonitrile 3 min, to 50% in 2 min, to 85% in 15 min, held 3 min, 100 µL/min
STATED CONDITIONS: column: Zorbax Extend-C18 2.1 x 50 mm; eluents: water / acetonitrile, 0.1% formic acid
Give bare numbers, in s.

Below are worked cases with known answers.
| MOLECULE | QUANTITATIVE RESULT |
| --- | --- |
| COc1ccc(C(=O)N2CCc3ccc(CNC(=O)NCC4CCCO4)cc32)cc1 (stereo not given) | 712 |
| O=C(NC(c1ccccc1)c1nnc(N2CCCC2)o1)c1ccc(Cl)cc1 (stereo not given) | 860 |
| O=C(NCc1ccccc1)N1CCN(c2nc3cccnc3n(Cc3ccccc3)c2=O)CC1 | 1020 |
| CCn1nc(C)c(CCNC(=O)CCCn2c(=O)c3cccn3c3ccc(Br)cc32)c1C | 730 |
| Cc1ccccc1Cn1cc(-c2ccncc2)cc1C(=O)NCC1CC1 | 704 |

Please look at the items below and tell me RP-LC retention time for each one, in order.
1. O=C(CCn1cnc2cc(-c3noc(-c4ccc(F)c(F)c4)n3)ccc21)N1CCOCC1
2. CN(CCCNC(=O)CCCn1c(=O)c2cccn2c2ccc(F)cc21)Cc1ccccc1
3. Cc1cccc(NC(=O)CC(=O)Nc2ccc3nc4n(c(=O)c3c2)CCCCC4)n1
4. COc1ccc(OC)c(NC(=O)CCc2c(C)nn(-c3cc(N4CCCC4)ncn3)c2C)c1

1: 740; 2: 673; 3: 624; 4: 827

Please look at the items below and tell me RP-LC retention time for each one, in order.
1. CC1(C(=O)NCc2ccccc2)CN(S(C)(=O)=O)CC(=O)N1c1ccccc1F (stereo not given)
2. CCC(C)N(CCNC(=O)c1cc(C)nn1-c1ccccc1)C1CCCCC1 (stereo not given)
3. O=C(NCc1ccccc1)C1CCCN(c2nc3ccsc3c(=O)n2Cc2ccccc2)C1 (stereo not given)

1: 773; 2: 684; 3: 902

Please look at the items below and tell me RP-LC retention time for each one, in order.
1. COc1ccc(C2(C(=O)N3CCC(c4ncc(C)n4C(C)C)C3)CC2)cc1 (stereo not given)
2. Cc1cc(/C=C2\SC(=S)NC2=O)cc(C)c1O
3. CCNc1cc(N2CCC(CCC(=O)NCCC(C)C)CC2)ncn1
4. Cc1ccc(NC(=O)C2CCCN2S(=O)(=O)c2cc3c(cc2C)NC(=O)CO3)c(C)c1 (stereo not given)
5. CCc1ccc(-c2csc(NC3OC(=O)c4ccccc43)n2)cc1 (stereo not given)
6. Cc1cc(C)c(C)c(S(=O)(=O)N2CCc3nc[nH]c3C2)c1C

[530, 906, 538, 817, 833, 666]

Please look at the items below and tell me RP-LC retention time for each one, in order.
1. Cc1noc(-c2ccc(OC3CN(C(=O)NCCc4ccccc4)C3)cc2)n1
2. Cc1cn(C)c(CC(=O)NCc2cccs2)c1C(=O)O

[880, 693]

---

PROTOCOL SUMMARY: gradient 5% acetonitrile 3 min, to 50% in 2 min, to 85% in 15 min, held 3 min, 100 µL/min
STATED CONDITIONS: column: Zorbax Extend-C18 2.1 x 50 mm; eluents: water / acetonitrile, 0.1% formic acid
Exercise: for every item that follows, state its recorded RP-LC retention time.
Answers are plain numbers, in s.

Below are worked cases with known answers.
| COMPOUND | METRIC | QUANTITATIVE RESULT |
| --- | --- | --- |
| O=C(COc1ccccc1F)N1CCN(Cc2csc(-c3ccccc3)n2)CC1 | RP-LC retention time | 606 |
| Cn1c(=O)c(C(=O)N2CCN(c3ccccn3)CC2)nn(-c2ccccc2)c1=O | RP-LC retention time | 604 |
| Cc1noc(C)c1CNC(=O)c1ccc2ncccc2c1 | RP-LC retention time | 753 |
| COc1cc(OC)cc(-c2nnc(Cc3nc(-c4ccccc4Cl)no3)o2)c1 | RP-LC retention time | 1020 |
| COc1cccc(C2Cn3nnc(-c4nc(-c5cccc(Cl)c5)no4)c3CO2)c1 (stereo not given) | RP-LC retention time | 1250 |
| CCOCCOC1CCN(S(=O)(=O)c2ccc(OC)cc2)CC1 | RP-LC retention time | 831 |
| CCOC(=O)N1CCN(Cc2nc(-c3ccc(N4CCCCC4)nc3)no2)CC1 | RP-LC retention time | 757 |
| Cc1cnn(Cc2nc(-c3ccc(NC(=O)c4ccco4)cc3)oc2C)c1 | RP-LC retention time | 806 |

Please look at the items below and tell me RP-LC retention time for each one, in order.
1. CCCn1cc(CCNS(=O)(=O)c2ccc(F)c(Cl)c2)c2cccnc21
2. O=C(Cn1nc2c(N3CCOCC3)nccn2c1=O)Nc1cc(C(F)(F)F)ccc1Cl

1: 931; 2: 827

---

Exercise: for every item that follows, state its recorded RP-LC retention time.
PROTOCOL SUMMARY: gradient 5% acetonitrile 3 min, to 50% in 2 min, to 85% in 15 min, held 3 min, 100 µL/min
STATED CONDITIONS: column: Zorbax Extend-C18 2.1 x 50 mm; eluents: water / acetonitrile, 0.1% formic acid
Numbers only, in s.

Below are worked cases with known answers.
| MOLECULE | READING UNIT | RP-LC retention time |
| --- | --- | --- |
| CCCN1CCN(c2cc(C(=O)O)c3cc(NS(=O)(=O)c4cc(F)ccc4C)ccc3n2)CC1 | s | 627 |
| Cc1ccc2c(c1)N(CC(=O)NC1CC1)C(=O)C(C)O2 (stereo not drawn) | s | 738 |
| CCN1C(=O)c2cccnc2Sc2cc(NC(=O)c3ccc(Br)o3)ccc21 | s | 842 |
| COc1ccc(-c2cc(C(=O)N(C)C3CCCCC3)nn2C2CCS(=O)(=O)C2)cc1 (stereo not drawn) | s | 924 |
| CCc1nnc2ccc(S(=O)(=O)Nc3cccc(F)c3)cn12 | s | 714 |
| CCSc1nnc(-c2nn(C)c3c2CN(S(=O)(=O)c2cc(F)ccc2F)CC3)n1CC | s | 949 |
| O=C(C1CCCN(c2ncnc3c2nc2n3CCCCC2)C1)N1CCC(N2CCCCC2)CC1 (stereo not drawn) | s | 590 |
| Cc1cccn2c(NC(=O)c3cc4ccccc4oc3=O)c(-c3ccccc3)nc12 | s | 695 |
| CC1CCN(CCCNC(=O)C2CCN(S(=O)(=O)c3ccc4c(c3)sc(=O)n4C)CC2)CC1 | s | 1060 |
| O=S(=O)(NCc1nc(-c2ccc(-c3csc(C4CC4)n3)cc2)no1)c1ccc(F)cc1 | s | 1080 |

Please look at the items below and tell me RP-LC retention time for each one, in order.
1. Cc1ccccc1Nc1c(-c2cccc(Cl)c2)nc2ccc(Cl)cn12
2. Cc1cc(C)n(-c2nc(-c3ccccc3)cc(=O)n2CC(=O)N2CCCc3ccccc32)n1
3. O=S(=O)(Cc1ccccc1)N1CCC(Cc2nncn2-c2ccccc2)CC1
4. COc1ccc(-n2nc(C(N)=O)c(=O)cc2OC)cc1
5. Cc1ccc(S(=O)(=O)N2CCC(CCC(=O)NC3CC3)CC2)cc1

1: 1080; 2: 1040; 3: 1080; 4: 581; 5: 789

Please look at the items below and tell me RP-LC retention time for each one, in order.
1. Cn1c(-c2cccs2)nn(CCNC(=O)c2ccccc2SC(F)F)c1=O
2. C=CCN(CC=C)S(=O)(=O)c1ccc(C(=O)Nc2nc3c(s2)CCc2ccccc2-3)cc1
3. CC(C)c1ccc(-c2nc3ncccn3c2NCc2ccc(Cl)cc2)cc1

[677, 1240, 936]

Please look at the items below and tell me RP-LC retention time for each one, in order.
1. Cc1noc(COC2CCN(C(=O)c3ccc4c(c3)OCO4)CC2)n1
2. Cc1ccc(-c2ccc(N3CCCC(C(=O)NC4CC4)C3)nn2)cc1 (stereo not drawn)
3. CCNc1cc(N2CCC(CCC(=O)NCCc3cccs3)CC2)ncn1
4. COc1ccc(CC(=O)NC2CCN(c3cc(-c4ccc(Cl)cc4)[nH]n3)C2)cc1OC (stereo not drawn)

1: 702; 2: 631; 3: 570; 4: 728

Please look at the items below and tell me RP-LC retention time for each one, in order.
1. O=C(Cc1cccs1)NC1CC(=O)N(Cc2ccccc2)C1 (stereo not drawn)
2. Cc1cc(Br)ccc1NC(=O)C1CCN(C(=O)c2cccn2-c2cccnc2)CC1
3. CCC(C)NC(=O)c1cccc(C)c1 (stereo not drawn)
4. CCC(=O)O[C@]1(C(=O)CO)CC[C@H]2[C@@H]3CCC4=CC(=O)CC[C@]4(C)[C@H]3CC[C@@]21C
5. COc1cccc(-c2noc(Cn3ccn(-c4ccccc4C)c(=O)c3=O)n2)c1OC
6. CC1CCCN(Cc2nc(Cn3ccn4nc(-c5ccccc5)cc4c3=O)no2)C1 (stereo not drawn)

[712, 763, 847, 1060, 798, 654]

Please look at the items below and tell me RP-LC retention time for each one, in order.
1. CCN1CCN(c2ccc(NC(=O)c3ccc(C(F)(F)F)cc3)cn2)C1=O
2. CCOC(=O)c1c(CN(C)C)n(C)c2cc(C#N)c(O)cc12
3. COc1ccc2cc(C(=O)N3CCC(CC(=O)NCCc4c[nH]c5ccc(OC)cc45)CC3)[nH]c2c1
4. O=C1CCCCC(Cc2ccccc2)(C(=O)NCc2cccc(C(F)(F)F)c2)N1 (stereo not drawn)
5. O=C(Cn1nc2c(N3CCCCCC3)nccn2c1=O)Nc1ccc(F)cc1
6. O=C(NCCc1ccc(F)cc1)C(=O)Nc1ccc(Cl)cn1
7. CCOc1ccc(-c2csc(NC(=O)CCc3ccccc3)n2)cc1

[823, 598, 759, 893, 715, 918, 1120]

Please look at the items below and tell me RP-LC retention time for each one, in order.
1. COc1ccc(NC(=O)c2cc(S(=O)(=O)N3CCCC(C)C3)cn2C)c(OC)c1 (stereo not drawn)
2. O=c1n(Cc2cccc(Cl)c2)nc2c(S(=O)(=O)N3CCCCC3)cccn12
3. COC(=O)C1=CN(C2CC2)c2cc(N3CCc4ccccc4C3)c(F)cc2S1(=O)=O

1010
935
977
